Reference source for all entries: paper PMC10579241

# RUN DESCRIPTION: in vitro
# Assay type: cell-based
# RECORDED CONDITIONS: human, BJ1 normal skin fibroblast cells, 100 μg/mL
REPORTED PROPERTY: mortality at 48 h, 100 µg/mL (%)
Write it as a number; the unit % goes unstated.

Incoming: Fill in: mortality at 48 h, 100 µg/mL of Cc1ccc(S(=O)(=O)NC(=O)Nc2ccc(C(F)(F)F)cc2)cc1 [Compound 7] is ___
Outgoing: 12.3

Incoming: Fill in: mortality at 48 h, 100 µg/mL of Cc1ccc(NC(=O)Nc2ccc(C(F)(F)F)cc2)cc1 [Compound 13] is ___
Outgoing: 84.2

Incoming: Fill in: mortality at 48 h, 100 µg/mL of Cc1ccc(S(=O)(=O)NC(=O)Nc2cc(C(F)(F)F)cc(C(F)(F)F)c2)cc1 [Compound 9] is ___
Outgoing: 28

Incoming: Fill in: mortality at 48 h, 100 µg/mL of Cc1ccc(S(=O)(=O)NC(=O)Nc2ccc(OC(F)(F)F)cc2)cc1 [Compound 8] is ___
Outgoing: 6.2

Incoming: Fill in: mortality at 48 h, 100 µg/mL of Cc1ccc(S(=O)(=O)NC(=O)Nc2ccccc2C(F)(F)F)cc1 [Compound 11] is ___
Outgoing: 19.2

Incoming: Fill in: mortality at 48 h, 100 µg/mL of COc1cccc2c1C(=O)c1c(O)c3c(c(O)c1C2=O)C[C@@](O)(C(=O)CO)C[C@@H]3O[C@H]1C[C@H](N)[C@H](O)[C@H](C)O1 [Doxorubicin, reference compound] is ___
Outgoing: 100

---

Would you mind telling me the reported zone of inhibition at 10000 µg/mL of each entry?
# Tested on: Bacillus mycoides
# RUN DESCRIPTION: microbe, parasite or virus in culture
# Type: cell-based
# RECORDED CONDITIONS: Bacillus mycoides, read-out: Inhibition zones diameter
Answer with the number, then the unit.

Incoming: Fill in: zone of inhibition at 10000 µg/mL of Cc1ccc(NC(=O)Nc2ccc(C(F)(F)F)cc2)cc1 is ___
Outgoing: 16 mm

Incoming: Fill in: zone of inhibition at 10000 µg/mL of Cc1ccc(S(=O)(=O)NC(=O)Nc2cc(C(F)(F)F)cc(C(F)(F)F)c2)cc1 is ___
Outgoing: 41 mm

Incoming: Fill in: zone of inhibition at 10000 µg/mL of Cc1ccc(NC(=O)Nc2cc(C(F)(F)F)cc(C(F)(F)F)c2)cc1 is ___
Outgoing: 23 mm

Incoming: Fill in: zone of inhibition at 10000 µg/mL of Cc1ccc(NC(=O)Nc2ccc(OC(F)(F)F)cc2)cc1 is ___
Outgoing: 15 mm

Incoming: Fill in: zone of inhibition at 10000 µg/mL of Cc1ccc(NC(=O)Nc2ccccc2C(F)(F)F)cc1 is ___
Outgoing: 18 mm

Incoming: Fill in: zone of inhibition at 10000 µg/mL of Cc1ccc(S(=O)(=O)NC(=O)Nc2ccccc2C(F)(F)F)cc1 is ___
Outgoing: 31 mm

Incoming: Fill in: zone of inhibition at 10000 µg/mL of Cc1ccc(S(=O)(=O)NC(=O)Nc2ccc(C(F)(F)F)cc2)cc1 is ___
Outgoing: 36 mm

Incoming: Fill in: zone of inhibition at 10000 µg/mL of COc1cc(NC(=O)NS(=O)(=O)c2ccc(C)cc2)cc(OC)c1 is ___
Outgoing: 24 mm

Incoming: Fill in: zone of inhibition at 10000 µg/mL of Cc1ccc(S(=O)(=O)NC(=O)Nc2ccc(OC(F)(F)F)cc2)cc1 is ___
Outgoing: 37 mm

Incoming: Fill in: zone of inhibition at 10000 µg/mL of COc1cc(NC(=O)Nc2ccc(C)cc2)cc(OC)c1 [Compound 16, 1-[3,5-Dimethoxyphenyl]-3-(p-tolyl)urea] is ___
Outgoing: 16 mm

---

# System: colon cancer (HCT116)
# RUN DESCRIPTION: cells
# Assay type: cell-based
# RECORDED CONDITIONS: Homo sapiens, HCT-116, 48 h, 100 μg/mL
REPORTED PROPERTY: mortality at 100 µg/mL (%)
Write it as a number; the unit % goes unstated.

Incoming: Fill in: mortality at 100 µg/mL of Cc1ccc(S(=O)(=O)NC(=O)Nc2ccc(C(F)(F)F)cc2)cc1 is ___
Outgoing: 100

Incoming: Fill in: mortality at 100 µg/mL of Cc1ccc(S(=O)(=O)NC(=O)Nc2cc(C(F)(F)F)cc(C(F)(F)F)c2)cc1 is ___
Outgoing: 100

Incoming: Fill in: mortality at 100 µg/mL of Cc1ccc(NC(=O)Nc2ccc(C(F)(F)F)cc2)cc1 is ___
Outgoing: 11.5

Incoming: Fill in: mortality at 100 µg/mL of Cc1ccc(S(=O)(=O)NC(=O)Nc2ccc(OC(F)(F)F)cc2)cc1 is ___
Outgoing: 100

Incoming: Fill in: mortality at 100 µg/mL of Cc1ccc(NC(=O)Nc2ccccc2C(F)(F)F)cc1 is ___
Outgoing: 7.5

Incoming: Fill in: mortality at 100 µg/mL of COc1cc(NC(=O)Nc2ccc(C)cc2)cc(OC)c1 [Compound 16, 1-[3,5-Dimethoxyphenyl]-3-(p-tolyl)urea] is ___
Outgoing: 5.9

Incoming: Fill in: mortality at 100 µg/mL of Cc1ccc(NC(=O)Nc2ccc(OC(F)(F)F)cc2)cc1 is ___
Outgoing: 5.6

Incoming: Fill in: mortality at 100 µg/mL of Cc1ccc(NC(=O)Nc2cc(C(F)(F)F)cc(C(F)(F)F)c2)cc1 is ___
Outgoing: 49.6

Incoming: Fill in: mortality at 100 µg/mL of COc1cc(NC(=O)NS(=O)(=O)c2ccc(C)cc2)cc(OC)c1 is ___
Outgoing: 37.5

---

# Tested on: Bacillus mycoides
# RUN DESCRIPTION: microbe, parasite or virus in culture
# Type: cell-based
# RECORDED CONDITIONS: read-out: Inhibition zone
Would you mind telling me the reported zone of inhibition at 4.88 µg/mL of each entry?

Incoming: Fill in: zone of inhibition at 4.88 µg/mL of Cc1ccc(S(=O)(=O)NC(=O)Nc2ccc(OC(F)(F)F)cc2)cc1 is ___
Outgoing: 17 mm

Incoming: Fill in: zone of inhibition at 4.88 µg/mL of Cc1ccc(S(=O)(=O)NC(=O)Nc2ccccc2C(F)(F)F)cc1 is ___
Outgoing: 0 mm

Incoming: Fill in: zone of inhibition at 4.88 µg/mL of Cc1ccc(S(=O)(=O)NC(=O)Nc2ccc(C(F)(F)F)cc2)cc1 is ___
Outgoing: 0 mm

Incoming: Fill in: zone of inhibition at 4.88 µg/mL of Cc1ccc(S(=O)(=O)NC(=O)Nc2cc(C(F)(F)F)cc(C(F)(F)F)c2)cc1 is ___
Outgoing: 0 mm

---

Would you mind telling me the reported IC50 of each entry?
# System: human lung carcinoma (A549)
# RUN DESCRIPTION: cells
# Format: cell-based
# RECORDED CONDITIONS: MTT, 48 h
Write it as a number; the unit µM goes unstated.

Incoming: Fill in: IC50 of COc1cccc2c1C(=O)c1c(O)c3c(c(O)c1C2=O)C[C@@](O)(C(=O)CO)C[C@@H]3O[C@H]1C[C@H](N)[C@H](O)[C@H](C)O1 [Doxorubicin, reference compound] is ___
Outgoing: 52.1

Incoming: Fill in: IC50 of Cc1ccc(S(=O)(=O)NC(=O)Nc2ccc(OC(F)(F)F)cc2)cc1 is ___
Outgoing: 55.8

Incoming: Fill in: IC50 of Cc1ccc(S(=O)(=O)NC(=O)Nc2ccc(C(F)(F)F)cc2)cc1 is ___
Outgoing: 86.5

Incoming: Fill in: IC50 of Cc1ccc(S(=O)(=O)NC(=O)Nc2ccccc2C(F)(F)F)cc1 is ___
Outgoing: 149

---

# Test system: Escherichia coli
# RUN DESCRIPTION: MIC by serial dilution (agar wells), E. coli
# Assay type: cell-based
# RECORDED CONDITIONS: 2.50 mg/mL, 150 µL in DMSO, 15 mm agar well
Would you mind telling me the reported zone of inhibition at 2500 µg/mL of each entry?
Write it as a number; the unit mm goes unstated.

Incoming: Fill in: zone of inhibition at 2500 µg/mL of Cc1ccc(S(=O)(=O)NC(=O)Nc2ccc(OC(F)(F)F)cc2)cc1 [Compound 8] is ___
Outgoing: 28

Incoming: Fill in: zone of inhibition at 2500 µg/mL of Cc1ccc(S(=O)(=O)NC(=O)Nc2cc(C(F)(F)F)cc(C(F)(F)F)c2)cc1 [Compound 9] is ___
Outgoing: 33

Incoming: Fill in: zone of inhibition at 2500 µg/mL of Cc1ccc(S(=O)(=O)NC(=O)Nc2ccc(C(F)(F)F)cc2)cc1 [Compound 7] is ___
Outgoing: 26

Incoming: Fill in: zone of inhibition at 2500 µg/mL of Cc1ccc(S(=O)(=O)NC(=O)Nc2ccccc2C(F)(F)F)cc1 [Compound 11] is ___
Outgoing: 24
